ASSAY_METHOD_TEXT: AUCt in Sprague-Dawley rat at 5 mg/kg, iv and measured upto 48 hrs by LC-MS/MS analysis
Type: ADME, organism-based
Set-up: dose 5 mg/kg, time < 48 hrs, route iv
EXPERIMENTAL_SETUP: in vivo
ASSAY_METRIC: AUC(0-t) at 48 h (ng·h/mL)
Answer in ng·h/mL, number only, no unit symbol.

-- ask Look up AUC(0-t) at 48 h for this compound: `Nc1nc(-c2cn(Cc3c(F)cccc3Cl)c3ncccc23)ncc1C1CC1`
-- reply 17900

----------
ASSAY_METHOD_TEXT: Clearance in Sprague-Dawley rat at 15 mg/kg, po and measured upto 48 hrs by LC-MS/MS analysis
Type: ADME, organism-based
EXPERIMENTAL_SETUP: in vivo
ASSAY_METRIC: CL/F (L/h/kg)
Give the value, in units of L/h/kg, as a plain number.

-- ask May I ask what CL/F has been recorded for `Nc1nc(-c2cn(Cc3c(F)cccc3Cl)c3ncccc23)ncc1C1CC1` ?
-- reply 1.3

Data provenance is ChEMBL document CHEMBL5390254.
